Task for the reader: assign each of the following binders its reported Kd.
Target: T1, purified human monomeric 4-1BB (human, UniProt Q07011 24-186)
T1 construct: the assay used the 4-1BB part released by Factor Xa with the Fc removed; also called h4-1BB; human 4-1BB
T1 sequence (Q07011 other isoform, or with tags, fused parts or gaps limits assumed): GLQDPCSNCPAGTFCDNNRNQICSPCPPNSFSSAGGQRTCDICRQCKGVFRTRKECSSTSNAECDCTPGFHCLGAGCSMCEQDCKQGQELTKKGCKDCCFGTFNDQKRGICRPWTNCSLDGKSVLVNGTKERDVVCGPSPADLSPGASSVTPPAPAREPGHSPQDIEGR
Experiment: SPR, mean n=3;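 note: antibodies captured on anti-human Fc chip, 4-1BB injected as five-point two-fold series from 40 nM by single-cycle kinetics at 25 °C, sensorgrams fitted to 1:1 Langmuir model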
Numbers only, in nM.

v28727 (antibody, human IgG1, kappa, L234A L235A, V domains shown, also called humanized 1C8 H8L1) VH: EVQLVESGGGLIQPGGSLRISCAVSGFSLTTYAISWVRQAPGKGLEWLGIIWPGGGTNYADSLKGRLTISKDNSKNTVYLQMNSLRTEDTAVYYCARGAGTWYFDVWGQGTLVTVSS VL: DIQMTQSPSSLSASVGDRVTITCSASQGISNYLNWYQQKPGKAPKLLIYYTSSLHSGVPSRFSGSGSGTDFTFTISSLQPEDIATYYCQQYSKFPWTFGQGTKVEIKR	813

Return reported Kd values for all items listed beneath this line.
1. v20036 (antibody, human IgG1, kappa, L234A L235A, V domains shown, Mouse-human chimera; also called 5G8; 5G8 mouse-human parental chimera) VH: QVQLQESGPGLVQPTQSLSITCTVSGFSLISYGVHWVRQSPGKGLEWLGVIWSGGSTDYNAAFISRLSISKDNSKSQVFFKMNSLQADDTAIYYCARNPLTATVMDYWGQGTSVTVSS VL: DIVMTQSQKFMSTSVGDRVSVTCKASQNVGTNVAWYQQKPGQSPKALIYSASYRDSGVPDRFTGSGSGTDFTLTISNVQSEDLAEYLCQQYNSYPLTFGAGTKLELKR
2. v28706 (antibody, human IgG1, kappa, L234A L235A, V domains shown, also called humanized 5G8 H3L4) VH: QVQLQESGPGLVKPSETLSITCTVSGFSLISYGVHWVRQPPGKGLEWLGVIWSGGSTDYNPSLKSRVTISKDTSKNQVSFKLSSLTAADTAIYYCARNPLTATVMDYWGQGTLVTVSS VL: DIQMTQSPSSLSASVGDRVTVTCRASQNVGTNVAWYQQKPGKAPKALIYSASYRDSGVPSRFSGSGSGTDFTLTISSVQPEDLATYYCQQYNSYPLTFGGGTKLEIKR

Result:
[266, 159]
